// provenance: PubChem BioAssay AID1963825

Assay Text: Anticancer human tumor 997537-175-T-J1-PDC patient-derived colon adenocarcinoma cell line growth inhibition [POLQ]
Protocol Conditions: 997537-175-T-J1-PDC complex spheroid viability, combination with POLQ inhibitors; second compound 0.316 µM; first compound 10 µM; stronger effect = lower value
Below: a set of entries, each annotated with reported viability, T/C.
The response must be a number in % with no trailing unit.

Challenge: Given the entry CC1COCCN1c1cc(-c2ccnn2C)c2ccnc(-c3ccn[nH]3)c2n1 (stereo not given) + COC1C(OC(N)=O)C(O)C(Oc2ccc3c(O)c(NC(=O)c4ccc(O)c(CC=C(C)C)c4)c(=O)oc3c2C)OC1(C)C , report its measured viability, T/C.
Response given: 66.8

Challenge: Given the entry CCCS(=O)(=O)Nc1ccc(F)c(C(=O)c2c[nH]c3ncc(-c4ccc(Cl)cc4)cc23)c1F + Cc1cccc(N(C)C(=O)C2C(O)CCN2c2nc(C)cc(C(F)(F)F)c2C#N)c1 , report its measured viability, T/C.
Response given: 23.1

Challenge: Given the entry CCc1cc2c(N3CCc4c(cc(Cn5ccnc5)cc4-c4cn(C)nc4C(F)(F)F)C3=O)ccnc2c(OC)n1 + Nc1ccc(C#CCN(C(=O)Cc2ncc(C(F)(F)F)cc2C(F)(F)F)c2ccc(F)cc2)nn1 , report its measured viability, T/C.
Response given: 61.8

Challenge: Given the entry O=C(Nc1ccc(O)c(NS(=O)(=O)c2ccc(F)cc2)c1)c1ccc(-c2ccccc2)cc1 + Cc1cccc(N(C)C(=O)C2C(O)CCN2c2nc(C)cc(C(F)(F)F)c2C#N)c1 , report its measured viability, T/C.
Response given: 92.5

Challenge: Given the entry CC1COCCN1c1cc(-c2ccnn2C)c2ccnc(-c3ccn[nH]3)c2n1 (stereo not given) + Nc1ccc(C#CCN(C(=O)Cc2ncc(C(F)(F)F)cc2C(F)(F)F)c2ccc(F)cc2)nn1 , report its measured viability, T/C.
Response given: 65.8

---

Below: a set of entries, each annotated with reported IC50.
Assay Text: Anticancer human tumor 997537-175-T-J1-PDC cell line growth inhibition [POLQ];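 further: luminescence signal used as a surrogate for viable cells; spheroids exposed to drugs for seven days before readout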
Protocol Conditions: 997537-175-T-J1-PDC complex spheroid viability, combination with POLQ inhibitors; curve of first compound; second compound 1 µM

# Compound, IC50
rows = [
    ("Cn1ncnc1[C@H]1c2n[nH]c(=O)c3cc(F)cc(c23)N[C@@H]1c1ccc(F)cc1 + Cc1cccc(N(C)C(=O)C2C(O)CCN2c2nc(C)cc(C(F)(F)F)c2C#N)c1", "> 0.1 µM"),
]

Challenge: Given the entry CC[C@@]1(O)C(=O)OCc2c1cc1n(c2=O)Cc2cc3c(CN(C)C)c(O)ccc3nc2-1 + Cc1cccc(N(C)C(=O)C2C(O)CCN2c2nc(C)cc(C(F)(F)F)c2C#N)c1 , report its measured IC50.
Response given: > 0.1 µM

Challenge: Given the entry Cn1ncnc1[C@H]1c2n[nH]c(=O)c3cc(F)cc(c23)N[C@@H]1c1ccc(F)cc1 + Nc1ccc(C#CCN(C(=O)Cc2ncc(C(F)(F)F)cc2C(F)(F)F)c2ccc(F)cc2)nn1 , report its measured IC50.
Response given: > 0.1 µM

Challenge: Given the entry CCc1cc2c(N3CCc4c(cc(Cn5ccnc5)cc4-c4cn(C)nc4C(F)(F)F)C3=O)cc(C)nc2c(OC)n1 + COC1C(OC(N)=O)C(O)C(Oc2ccc3c(O)c(NC(=O)c4ccc(O)c(CC=C(C)C)c4)c(=O)oc3c2C)OC1(C)C , report its measured IC50.
Response given: > 10 µM

Challenge: Given the entry COc1cccc(OCCCN)c1-c1cc(Nc2cnc(C#N)cn2)n[nH]1 + Nc1ccc(C#CCN(C(=O)Cc2ncc(C(F)(F)F)cc2C(F)(F)F)c2ccc(F)cc2)nn1 , report its measured IC50.
Response given: 0.0213 µM

Challenge: Given the entry CCc1cc2c(N3CCc4c(cc(Cn5ccnc5)cc4-c4cn(C)nc4C(F)(F)F)C3=O)cc(C)nc2c(OC)n1 + Cc1cccc(N(C)C(=O)C2C(O)CCN2c2nc(C)cc(C(F)(F)F)c2C#N)c1 , report its measured IC50.
Response given: > 10 µM

Challenge: Given the entry C#Cc1c(F)ccc2cc(O)cc(-c3ncc4c(N5CC6CCC(C5)N6)nc(OCC56CCCN5CC(F)C6)nc4c3F)c12 (stereo not given) + COC1C(OC(N)=O)C(O)C(Oc2ccc3c(O)c(NC(=O)c4ccc(O)c(CC=C(C)C)c4)c(=O)oc3c2C)OC1(C)C , report its measured IC50.
Response given: > 10 µM

Challenge: Given the entry CC(=O)O[C@H]1C(=O)[C@@]2(C)[C@H]([C@H](OC(=O)c3ccccc3)[C@]3(O)C[C@H](OC(=O)[C@H](O)[C@@H](NC(=O)c4ccccc4)c4ccccc4)C(C)=C1C3(C)C)[C@]1(OC(C)=O)CO[C@@H]1C[C@@H]2O + Cc1cccc(N(C)C(=O)C2C(O)CCN2c2nc(C)cc(C(F)(F)F)c2C#N)c1 , report its measured IC50.
Response given: < 0.00949 µM

Challenge: Given the entry CCc1cc2c(N3CCc4c(cc(Cn5ccnc5)cc4-c4cn(C)nc4C(F)(F)F)C3=O)cc(C)nc2c(OC)n1 + Nc1ccc(C#CCN(C(=O)Cc2ncc(C(F)(F)F)cc2C(F)(F)F)c2ccc(F)cc2)nn1 , report its measured IC50.
Response given: > 10 µM

Challenge: Given the entry Nc1ccn(C2OC(CO)C(O)C2(F)F)c(=O)n1 (stereo not given) + Nc1ccc(C#CCN(C(=O)Cc2ncc(C(F)(F)F)cc2C(F)(F)F)c2ccc(F)cc2)nn1 , report its measured IC50.
Response given: > 10 µM
